Test system: HER2 epitope peptide
Setup Conditions: 5'-H2N-(CH2)6; doxorubicin intercalated, Dox:aptamer 10:1; apparent Kd from doxorubicin fluorescence release upon epitope binding; Dox molar ratio 10
pKd: −log10 of the molar value.
Measured Property: pKd

>>> df
                           monomer_sequence  experimental_value
0  AACCGCCCAAATCCCTAAGAGTCTGCACTTGTCATTTTGTATATGTATTTGGTTTTTGGCTCTCACAGACACACTACACACGCACA [Dox-loaded anti-HER2 aptamer]                7.30
